Test: chemical genetic growth profiling, strain panel (AID 1159580);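 note: tested at 20 µM; growth read once vehicle control cultures reached saturation at 30 °C; 1 = growth at the plate median or of vehicle wells; lower values mean less growth of the strain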
Conditions: S. cerevisiae deletion strains, growth OD, locus YBR279W, strain paf1, stronger effect = lower value
The whole screen tested about 5,500 compounds, of which about 2,000 (36%) were called active. Another 18% or so got no clear call; they are omitted. The list shows a part of the results.
assayReadout: normalized growth
Please reply with the number alone, leaving off any unit.

In the examples that follow, each entry is paired with its recorded normalized growth.
CC(=O)O[C@@H]1CC2C(C)(C)C(=O)C=C[C@]2(C)C2CC[C@]3(C)C(=CC(=O)O[C@H]3c3ccoc3)[C@@]21C (stereo partly drawn)	1.01
OC[C@H]1O[C@@H](O[C@H]2[C@H](O)[C@@H](O)[C@@H](O)O[C@@H]2CO)[C@H](O)[C@@H](O)[C@@H]1O	0.993

Query: For the molecule "OC[C@H]1O[C@@](CO)(O[C@@H]2O[C@H](CO)[C@@H](O)[C@H](O)[C@H]2O)[C@@H](O[C@@H]2O[C@H](CO)[C@@H](O)[C@H](O)[C@H]2O)[C@@H]1O" , what normalized growth is on record?
Response: 1.02

----------
Assay: chemical genetic growth profiling, strain panel (AID 1159580)
Conditions: S. cerevisiae deletion strains, growth OD, locus YKL190W, strain CNB1, stronger effect = lower value
The campaign covered roughly 5,500 compounds. About 2,000 (36%) were called active. Another 18% or so got no clear call; they are omitted. The list shows a part of the results.
assayReadout: normalized growth

CC(=O)N[C@@H](Cc1c[nH]c2ccccc12)C(N)=O	0.979 (inactive)
CC(C)CCCC(C)C1CC[C@@]2(C)C3=C(CC[C@]12C)[C@@]1(C)CC[C@H](O)C(C)(C)C1CC3 (stereo partly specified)	1 (inactive)

Query: For the molecule CC12CCC(O)CC1CCC1C2[C@H](O)CC2(C)C(C3=CC(=O)OC3)CCC12O (stereo partly specified) , what normalized growth is on record?
Response: 1.02 (inactive)

Query: Check "N=C(N)N" too.
Response: 0.993 (inactive)

Query: Check "Cc1cccc(Cn2nc(C(C)(C)C)cc2C(=O)O)c1" too.
Response: 0.982 (inactive)

Query: Check CC(Cc1cccc(C(F)(F)F)c1)NCCOC(=O)c1ccccc1 (stereo unspecified) too.
Response: 0.982 (inactive)

----------
Assay: chemical genetic growth profiling, strain panel (AID 1159580);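 note: tested at 20 µM; growth read once vehicle control cultures reached saturation at 30 °C; 1 = growth at the plate median or of vehicle wells; lower values mean less growth of the strain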
Settings: S. cerevisiae deletion strains, growth OD, locus YLR258W, strain gsy2
Out of some 5,500 compounds screened, about 2,000 (36%) were called active. Not shown: some 18% with an inconclusive outcome. Cut-off read from the data, not from the text of the source: active = normalized growth mostly below about 0.91 (no sharp cut-off); inconclusive = no clear call, values can overlap the other calls; inactive = mostly above about 0.92. The list shows a part of the results.
Use one of these outcomes when replying: active, inactive

CC(=O)Oc1ccc(/C=C/c2cc(OC(C)=O)cc(OC(C)=O)c2)cc1	inactive

Query: Check the results log: what was the call for "CCCSc1ccc2nc(NC(=O)OC)[nH]c2c1" ?
Response: inactive

Query: Check "Oc1cccc(O)c1" too.
Response: inactive

Query: Check "Nc1ccc(S(=O)(=O)NC(=O)c2ccccc2)cc1" too.
Response: inactive

----------
Assay: chemical genetic growth profiling, strain panel (AID 1159580);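 note: tested at 20 µM; growth read once vehicle control cultures reached saturation at 30 °C; 1 = growth at the plate median or of vehicle wells; lower values mean less growth of the strain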
Details: S. cerevisiae deletion strains, growth OD, locus YIL125W, strain kgd1, stronger effect = lower value
Screen size: about 5,500 compounds; about 2,000 (36%) were called active. Roughly 18% stayed inconclusive and do not appear here. This is one part of the list.
assayReadout: normalized growth

CC(=O)Oc1cccc(O)c1	1.01 (inactive)
CC(C)=CC1C(C(=O)O)C1(C)C (stereo not drawn)	0.98 (inactive)
C/C1=C\CC(C)(C)/C=C/CC2(C)OC2CC1 (stereo not drawn)	1.01 (inactive)
CC(C)(C)NCC(O)c1ccc(O)c(CO)c1 (stereo not drawn)	1.01 (inactive)
CC(C)CCCC(C)C1CCC2C3C[C@@H](O)[C@@]4(O)C[C@@H](O)CC[C@]4(C)C3CC[C@]12C (stereo partly drawn)	1.02 (inactive)

Query: For the molecule "OC[C@H]1O[C@@](CO)(O[C@@H]2O[C@H](CO)[C@@H](O)[C@H](O)[C@H]2O)[C@@H](O[C@@H]2O[C@H](CO)[C@@H](O)[C@H](O)[C@H]2O)[C@@H]1O" , what normalized growth is on record?
Response: 1.02 (inactive)

Query: Check CC(C)CCCC(C)[C@H]1CCC2C3CC[C@@H]4C[C@H](O)CC[C@]4(C)C3CC[C@@]21C (stereo partly drawn) too.
Response: 0.999 (inactive)

Query: Check CCC(C)C(=O)OC1[C@@H]2CC3=C4CC(=O)O[C@@H](c5ccoc5)[C@]4(C)CCC3[C@@](C)(C2=O)[C@@H](CC(=O)OC)C1(C)C (stereo partly drawn) too.
Response: 0.998 (inactive)

Query: Check "CS(=O)(=O)c1ccc([C@@H](O)[C@@H](CO)NC(=O)C(Cl)Cl)cc1" too.
Response: 0.992 (inactive)

Query: Check CC(CCc1ccccc1)NCC(O)c1ccc(O)c(C(N)=O)c1 (stereo not drawn) too.
Response: 1.01 (inactive)

Query: Check NCC(N)C(=O)c1ccccc1 (stereo not drawn) too.
Response: 1 (inactive)

Query: Check "O=C(O)C1=CCCNC1" too.
Response: 0.987 (inactive)

Query: Check "CNCCCC12CCC(c3ccccc31)c1ccccc12" too.
Response: 0.981 (inactive)

Query: Check "CNNC" too.
Response: 0.99 (inactive)

Query: Check "COc1cc(C/C=C/c2ccccc2)c(OC)cc1O" too.
Response: 0.979 (inactive)

Query: Check CC(C)CCCC(C)C1CCC2C3CC[C@H]4C[C@@H](O)CC[C@]4(C)C3CC[C@]12C (stereo partly drawn) too.
Response: 1.01 (inactive)

Query: Check "CCCc1c(OCCCCc2nn[nH]n2)ccc(C(C)=O)c1O" too.
Response: 1 (inactive)

Query: Check CC(=O)OCC(=O)[C@@]1(O)[C@H](C)CC2C3CCC4=CC(=O)C=C[C@]4(C)[C@@]3(F)[C@@H](O)C[C@@]21C (stereo partly drawn) too.
Response: 0.997 (inactive)

Query: Check CC(C)CCCC(C)[C@H]1CCC2C3CC=C4CC(=O)CC[C@]4(C)C3CC[C@@]21C (stereo partly drawn) too.
Response: 0.987 (inactive)

Query: Check "N[C@@H](CCC(=O)N[C@@H](CS)C(=O)NCC(=O)O)C(=O)O" too.
Response: 0.996 (inactive)

Query: Check "NCC(=O)c1ccccc1" too.
Response: 1 (inactive)

Query: Check "NC(=O)NC(=O)Cc1ccccc1" too.
Response: 1 (inactive)

Query: Check "CCCSc1ccc2nc(NC(=O)OC)[nH]c2c1" too.
Response: 0.98 (inactive)

----------
Test: chemical genetic growth profiling, strain panel (AID 1159580);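 note: tested at 20 µM; growth read once vehicle control cultures reached saturation at 30 °C; 1 = growth at the plate median or of vehicle wells; lower values mean less growth of the strain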
Conditions: S. cerevisiae deletion strains, growth OD, locus YEL061C, strain CIN8 (second series), stronger effect = lower value
Out of some 5,500 compounds screened, about 2,000 (36%) were called active. Inconclusive results (about 18%) are left out. The list shows a part of the results.
assayReadout: normalized growth
Please reply with the number alone, leaving off any unit.

In the examples that follow, each entry is paired with its recorded normalized growth.
CC(=O)O[C@H]1CC[C@@]2(C)C(C[C@@H](OC(C)=O)[C@@]3(C)C4=CC(=O)O[C@@H](c5ccoc5)[C@]4(C)CCC23)C1(C)C (some centres undefined)	1.01
CC(=O)O[C@@H]1CC2C(C)(C)[C@H](O)C=C[C@]2(C)C2CC[C@]3(C)C(=CC(=O)O[C@H]3c3ccoc3)[C@@]21C (some centres undefined)	0.988
CC1=CCCC2C1(C)CCC(C)C2(C)CC/C(C)=C/C[n+]1cn(C)c2c(N)ncnc21 (centres undefined)	0.976
O=C1NC(O)=NC1(c1ccccc1)c1ccccc1	1.02

Query: For the molecule CC(CCC(=O)O)[C@H]1CCC2C3C(=O)C[C@@H]4CC(=O)CC[C@]4(C)C3CC(=O)[C@@]21C (some centres undefined) , what normalized growth is on record?
Response: 0.99

Query: Check "Cc1cc(=O)oc2cc(O)cc(O)c12" too.
Response: 0.951

Query: Check "CCOC(=O)NNc1nncc2ccccc12" too.
Response: 1

Query: Check "Cc1nc(N)cc(C[n+]2csc(CCO)c2C)n1" too.
Response: 0.974

Query: Check "CC1=CC(=O)c2c(O)cccc2C1=O" too.
Response: 0.0564

Query: Check CC(=O)O[C@@H]1C=C[C@@]2(C)C(C[C@@H](OC(C)=O)[C@@]3(C)C4=CC(=O)O[C@@H](c5ccoc5)[C@]4(C)CCC23)C1(C)C (some centres undefined) too.
Response: 0.992

Query: Check "CS(=O)(=O)c1ccc([C@@H](O)[C@@H](CO)NC(=O)C(Cl)Cl)cc1" too.
Response: 1.02

Query: Check "CC(=O)Nc1ccc(S(=O)(=O)Nc2onc(C)c2C)cc1" too.
Response: 0.956

Query: Check CC(=O)O[C@@H]1CC2C(C)(C)C(=O)C=C[C@]2(C)C2CC[C@]3(C)C(=CC(=O)O[C@H]3c3ccoc3)[C@@]21C (some centres undefined) too.
Response: 1.01

Query: Check "COC(=O)c1c(OC)cc2c(c1C)Oc1c(Cl)c(O)c(Cl)c(C)c1C(=O)O2" too.
Response: 0.988

Query: Check CC(Cc1cccc(C(F)(F)F)c1)NCCOC(=O)c1ccccc1 (centres undefined) too.
Response: 0.988
